Can you tell me apparent KD of MS2 coat protein for the items I'm about to list?
- Tested on: MS2 coat protein
- assay: apparent KD of MS2 coat protein; designed switch direction (-1 OFF switch, 1 ON switch): -1; higher = weaker reporter binding
- measurement.conditions: Eterna round: R95; input ligand: none
Answers are plain numbers, in nM.

Completed entries (count: 2):
[
  {
    "seq.string": "UAUUAACAAGUAAGAUCCUACAUGAGGAUCACCCAUGUGCUCGUCUUAUAAGGUACUGUGACGAAAGUCACGGUACC [Sensor 3, v1 - 72] (puzzle: Sensor v3, turn-off variant 1)",
    "apparent KD of MS2 coat protein [nM]": 39.4
  },
  {
    "seq.string": "UUUUUUGUUUUUUUUACAAGCUUUUUGCUCGUCUUAUUAACAUGAGGAUCACCCAUGUCAAAGAGACCUCAUGUAUU [Sensor v3 - turn-off variant 2 - 1] (puzzle: Sensor v3, turn-off variant 2)",
    "apparent KD of MS2 coat protein [nM]": 207
  }
]

I would be grateful if you could provide apparent KD of MS2 coat protein for each of the following entries.
1. AAAACACAUGAGGAUCACCCAUGUGAGGAUAUGUUCAUGUUCAGCAAACUGAACAUGAACAGAAGGCACAUAAA [JR_Exclusion1_Sub016] (puzzle: Exclusion 1)
2. GAAAAGGUAGGAUAUACGAAAAAAAAGGGUAGAAAAAAAACACAUGAGGAUCACCCAUGUAGAAGGACCAGAAG [salish99_ex2_r3_038] (puzzle: Exclusion 2)
3. CGGUGCUGAGGAUAUACAUGAGGAUCACCCAUGUGUUCCAGCUAGCGUACUGGCAGAUGUAGAAGGCGGUACUG [JL-ex3-3.42 Brourd mod] (puzzle: Exclusion 3)

output:
1: 40.4; 2: 17.3; 3: 19

###

- Test system: K4 kissing-loop RNA reporter;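 further: bound reporter read as fluorescence of individual clusters on recovered sequencing chips by microscopy, with normalized cluster intensities fitted with a binding model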
- assay: apparent KD of K4 kissing-loop reporter; higher = weaker reporter binding
- measurement.conditions: Eterna round: R107; input ligand: arginine 13.2 mM
Returns one of TRUE or FALSE; TRUE when apparent KD of K4 kissing-loop reporter is >= 200 nM.

[
  {
    "seq.string": "UAUCUAUGCUCGGCCGCCACUAGGACCGGGAGGUAACUAGUGAUGUUAGUAUCUUCGGCCGCCACUAGGACCGGGAGUGUAGAUA [KL-SSTryp-B17 #DoubleAptamer]",
    "class": "FALSE"
  }
]

input: Decide: apparent KD of K4 kissing-loop reporter of UUGUUUCCGACGGCCGCCACUGGUUUCUUUGUUGUAGUGAUGUUGCGGUGGAAUGAUAGCGUUAACAGGACCGGGUCGGUGAGAC [theeternabot_sameState_KL_Trp_B_42] >= 200 nM?
output: TRUE

input: Now the same for AUUGUCGGAGUCUGUGCUGACUGACGAGCAAAGGAUAUGUUAUUAAACAGAAGGUUGUGCUGCUUAAGUGAUGUUUUUGGAGCUA [theeternabot_sameState_KL_FMN_A_26]
output: FALSE

input: Now the same for UUCAUCGUGGUUCGCGGGUGGUAUGAAAAGCGAGGACCGGUACGGCCGCCACUCGGUUCCGCUUGUUGAGUGAUGUUCAAUAUUU
output: TRUE

input: Now the same for AUGACAGAAUCGGCCGCCACUCAUUGUCCUGUGGACAUUCUAGGAUUAGUGAUGUUUUUCCCAUCGAGGACCGGGAUACAGAUUG [theeternabot_sameState_KL_Trp_B_6]
output: TRUE

# credit: the supplement of paper PMC9170038
